# Test Target: α-thrombin (Homo sapiens)
# Construct: purchased Sigma; Haematologic Technologies; or prepared in house from prothrombin (Enzyme Research Laboratories) with Oxyuranus scutellatus venom
# Test Description: Inhibition of thrombin-mediated hydrolysis of S2238
# Assay type: biochemical
# Stated Conditions: 150 mM NaCl, 0.5 nM thrombin, 37°C, pH 7.4; three experiments; read-out: inhibition constant (Ki), competitive model
Where no end group is shown, it is not given here.
Outcome Measure: pKi
Answers are plain numbers, as −log10 of the molar value.

q: Provide only the value of recorded pKi for KPNLQSRSDDGVDESDYDTYPDDNNDDSGERNGGSEPAKPRLPVPGSGRDSERIPVPVD [hyalomin-1]
a: 7.92

Entry source: paper PMC4526366
